Biological target: Transthyretin (Homo sapiens)
Experiment: Inhibition of transthyretin fibril formation at pH 4.4 at 100 uM
Type: functional
Binary classification by inhibition, with 10% as an inclusive lower bound for label 1; all other cases are label 0.

Reference set (10 entries):
>  <molecule>
Cc1ccsc1/C=c1\sc2nc(-c3cccs3)nn2c1=O

>  <target-under-test>
Transthyretin (Homo sapiens)

>  <label>
label 1

$$$$
>  <molecule>
Clc1ccccc1C1CC(c2cccs2)Nc2nnnn21 (stereo not given)

>  <target-under-test>
Transthyretin (Homo sapiens)

>  <label>
label 1

$$$$
>  <molecule>
O=C1/C(=C/c2ccc(Cl)cc2Cl)SC(=S)N1c1ccc(O)cc1

>  <target-under-test>
Transthyretin (Homo sapiens)

>  <label>
label 0

$$$$
>  <molecule>
COc1cc(C2NC(C(=O)O)CS2)ccc1O (stereo not given)

>  <target-under-test>
Transthyretin (Homo sapiens)

>  <label>
label 0

$$$$
>  <molecule>
CCOC(=O)c1c(N)sc(C(=O)Nc2cc(C)cc(C)c2)c1C

>  <target-under-test>
Transthyretin (Homo sapiens)

>  <label>
label 1

$$$$
>  <molecule>
O=C(NC(c1cccc([N+](=O)[O-])c1)c1cc(Cl)c2cccnc2c1O)c1cccnc1 (stereo not given)

>  <target-under-test>
Transthyretin (Homo sapiens)

>  <label>
label 1

$$$$
>  <molecule>
Cc1ccc(C2NC(C(=O)O)CS2)cc1 (stereo not given)

>  <target-under-test>
Transthyretin (Homo sapiens)

>  <label>
label 1

$$$$
>  <molecule>
O=C(NCc1ccco1)c1cc(Sc2cccc(Cl)c2)nc2ccccc12

>  <target-under-test>
Transthyretin (Homo sapiens)

>  <label>
label 1

$$$$
>  <molecule>
Clc1ccc2nc(-c3ccc(Cl)s3)c(NC3CCCCC3)n2c1

>  <target-under-test>
Transthyretin (Homo sapiens)

>  <label>
label 0

$$$$
>  <molecule>
O=C(O)C1CSC(c2ccc(Cl)cc2Cl)N1 (stereo not given)

>  <target-under-test>
Transthyretin (Homo sapiens)

>  <label>
label 1

$$$$

Now look at this one.
Asked: Hello, I need to know if CCN1C(=O)/C(=C/c2ccc(N(CC)CC)cc2O)SC1=S has measured inhibition not below 10%. Thanks!
Given back: label 0

---

Target: Transthyretin (Homo sapiens, UniProt P02766)
Assay: Inhibition of transthyretin fibril formation at pH 4.4
This section presents molecules with their documented pIC50 values.
Worth noting: pIC50 values are minus log10 of concentrations stated in mol/L.

>  <molecule-smiles>
COc1cc(C(=O)O)ccc1Oc1ccccc1

>  <meas-value>
4.39

$$$$

Attention now turns to another entry.
Asked: Returns the measured pIC50 for the input molecule. Input: O=C(O)c1ccc(Oc2ccccc2)c(O)c1
Given back: 5.50

---

This section presents molecules with their documented inhibition values.
Target: Transthyretin (Homo sapiens)
Test: Inhibition of transthyretin fibril formation at pH 4.4 at 100 uM
Assay type: functional
Express your answer in %, writing the number without its unit.

Field: example entries. Status: answers known.
>  <molecule>
O=C(c1cc(-c2ccc(Cl)s2)nc2ccccc12)N1CCOCC1

>  <target-under-test>
Transthyretin (Homo sapiens)

>  <meas-value>
0

$$$$
>  <molecule>
O=C1/C(=C\c2ccc(-c3ccc(Cl)cc3)o2)SC(=S)N1c1cccc(Cl)c1

>  <target-under-test>
Transthyretin (Homo sapiens)

>  <meas-value>
0

$$$$
>  <molecule>
O=C1/C(=C\c2cccc(O)c2)SC(=S)N1c1ccc(F)cc1

>  <target-under-test>
Transthyretin (Homo sapiens)

>  <meas-value>
0

$$$$
>  <molecule>
O=C(CSc1nccn1-c1cccc(Cl)c1)Nc1cccc2ccccc12

>  <target-under-test>
Transthyretin (Homo sapiens)

>  <meas-value>
0

$$$$

Asked: Returns the measured inhibition for the input molecule. Input: CCc1ccc(Oc2cc(F)nc(N)n2)cc1
Given back: 9.71

Asked: Returns the measured inhibition for the input molecule. Input: NC(=O)CSc1ncc(-c2ccc(Cl)cc2)[nH]1
Given back: 60.8

Asked: Returns the measured inhibition for the input molecule. Input: Cc1ccccc1Nc1c(-c2ccc(Cl)s2)nc2ccc(Cl)cn12
Given back: 0

---

Target: Transthyretin (Homo sapiens)
Assay: Inhibition of transthyretin fibril formation at pH 4.4 at 50 uM
Assay type: functional
Set-up: scale not given: the % may be the effect or the level left
This section presents molecules with their documented Activity values.
Express your answer in %, writing the number without its unit.

Field: example entries. Status: answers known.
>  <molecule-smiles>
O=Cc1ccc(Oc2ccc([N+](=O)[O-])cc2[N+](=O)[O-])c(O)c1

>  <u>
%

>  <meas-value>
40.5

$$$$
>  <molecule-smiles>
COc1cc(C(=O)O)ccc1Oc1ccccc1

>  <u>
%

>  <meas-value>
40

$$$$

Asked: Checklist item: Activity tested on Transthyretin (Homo sapiens), entry Oc1cc(Cl)ccc1Oc1ccc(Cl)cc1Cl , value?
Given back: 41

---

Target: Transthyretin (Homo sapiens, UniProt P02766)
Test: Inhibition of transthyretin fibril formation at pH 4.4 at 100 uM
Type: functional
This section presents compounds with their documented inhibition values.
Express your answer in %, writing the number without its unit.

>  <compound>
CCOC(=O)c1c(N)sc(C(=O)NC2CCCCC2)c1C

>  <meas-value>
41.9

$$$$

Asked: Returns the measured inhibition for the input compound. Input: O=C(O)C1CSC(c2ccc(Cl)cc2)N1 (centres undefined)
Given back: 0

Asked: Returns the measured inhibition for the input compound. Input: O=C(O)C1CSC(c2ccc(O)cc2)N1 (centres undefined)
Given back: 0

Asked: Returns the measured inhibition for the input compound. Input: CCOC(=O)c1sc(=S)n(-c2ccc(Br)cc2)c1N
Given back: 0

Asked: Returns the measured inhibition for the input compound. Input: O=C1/C(=C\c2ccco2)SC(=S)N1c1cccc(F)c1
Given back: 0

Asked: Returns the measured inhibition for the input compound. Input: Cc1ccc2nc(-c3ccc(Cl)s3)c(Nc3ccc(Cl)cc3)n2c1
Given back: 0

Asked: Returns the measured inhibition for the input compound. Input: Cc1nc2c(ccc3ccccc32)c(O)c1CN(C)Cc1ccccc1
Given back: 0

Asked: Returns the measured inhibition for the input compound. Input: O=C(c1cnc(Nc2ccc(F)cc2)c2ccccc12)n1ccnc1
Given back: 0

Asked: Returns the measured inhibition for the input compound. Input: Fc1ccccc1NC(=S)N(CCCN1CCOCC1)Cc1cccnc1
Given back: 0.7

---

This section presents molecules with their documented percent fibril formation relative to control values.
Target: Transthyretin (Homo sapiens, UniProt P02766)
Assay: Inhibition of transthyretin amyloidosis assessed as fibril formation pH 4.4 at 100 uM
Assay type: functional
Express your answer in %, writing the number without its unit.

Asked: Returns the measured percent fibril formation relative to control for the input molecule. Input: COC(=O)c1sc(=S)n(-c2ccc(Cl)c(Cl)c2)c1N
Given back: 84.5

Asked: Returns the measured percent fibril formation relative to control for the input molecule. Input: Cc1ccn2c(Nc3ccc(F)cc3)c(-c3ccccn3)nc2c1
Given back: 162

Asked: Returns the measured percent fibril formation relative to control for the input molecule. Input: CCOC(=O)c1c(N)sc(C(=O)Nc2cc(C)cc(C)c2)c1C
Given back: 87.8

Asked: Returns the measured percent fibril formation relative to control for the input molecule. Input: Cc1ccc2nc(NC(=O)c3ccccc3O)sc2c1
Given back: 368

Asked: Returns the measured percent fibril formation relative to control for the input molecule. Input: O=C(c1cc(-c2ccc(Cl)s2)nc2ccccc12)N1CCOCC1
Given back: 156

---

Biological target: Transthyretin (Homo sapiens)
Test: Inhibition of transthyretin amyloidosis assessed as fibril formation pH 4.4 at 100 uM
Assay type: functional
This section presents molecules with their documented percent fibril formation relative to control values.
Express your answer in %, writing the number without its unit.

>  <molecule>
Cn1c(=O)c2c(nc(Oc3ccc(-n4cnnn4)cc3)n2C)n(C)c1=O

>  <meas-value>
155

$$$$
>  <molecule>
O=C1OC(c2ccc(Cl)cc2Cl)=N/C1=C/c1ccc(Cl)c(Cl)c1

>  <meas-value>
138

$$$$
>  <molecule>
COc1ccc(C2NC(C(=O)O)CS2)cc1OC (centres undefined)

>  <meas-value>
129

$$$$
>  <molecule>
Clc1ccc2nc(-c3ccc(Cl)s3)c(NC3CCCCC3)n2c1

>  <meas-value>
138

$$$$
>  <molecule>
NC(=O)CSc1ncc(-c2ccc(Cl)cc2)[nH]1

>  <meas-value>
39.2

$$$$
>  <molecule>
O=C(NC1CC1)c1cc(Sc2cccc(Cl)c2)nc2ccccc12

>  <meas-value>
41.8

$$$$

Asked: Returns the measured percent fibril formation relative to control for the input molecule. Input: O=c1c2sccc2n(Cc2ccc(F)cc2Cl)c(=O)n1-c1cc(F)ccc1F
Given back: 117

Asked: Returns the measured percent fibril formation relative to control for the input molecule. Input: Cn1ncc(/N=C/c2ccccc2O)c1C(=O)N1CCOCC1
Given back: 50

Asked: Returns the measured percent fibril formation relative to control for the input molecule. Input: O=C(O)CCCCCN1C(=O)/C(=C/c2c[nH]c3ccccc23)SC1=S
Given back: 126

Reference for the values: ChEMBL document CHEMBL1138243
